Tested on: T cell proliferation in mouse spleen cell mixed lymphocyte cultures
ASSAY PROCEDURE: Mixed Lymphocyte Reaction (MLR) assay
Type: cell-based, mouse (Balb/c responder, C57B1/6 stimulator)
ASSAY CONTEXT: 10 um
ATTRIBUTE MEASURED: Mean O.D. Allogenic (O.D.)
Numbers only here, please. The scale is O.D..

>  <COMPOUND>
CCCCCCCOC[C@H]1O[C@](COCC)(OC)[C@@H](OCC)[C@@H]1O

>  <ATTRIBUTE MEASURED>
Mean O.D. Allogenic

>  <ENDPOINT RESULT>
0.382

$$$$
>  <COMPOUND>
CN1CCCC1CCNC[C@H]1OC(C)(C)O[C@@H]2[C@H]3OC(C)(C)O[C@H]3O[C@@H]21 (stereo partly drawn)

>  <ATTRIBUTE MEASURED>
Mean O.D. Allogenic

>  <ENDPOINT RESULT>
0.180

$$$$
>  <COMPOUND>
CCCCC/C=C/COC[C@H]1O[C@@]2(OC)COC(C)(C)O[C@H]2[C@@H]1OC/C=C/CCCCC

>  <ATTRIBUTE MEASURED>
Mean O.D. Allogenic

>  <ENDPOINT RESULT>
0.318

$$$$
>  <COMPOUND>
CCCCC/C=C\COC[C@H]1O[C@@]2(OC)COC(C)(C)O[C@H]2[C@@H]1OC/C=C\CCCCC

>  <ATTRIBUTE MEASURED>
Mean O.D. Allogenic

>  <ENDPOINT RESULT>
0.199

$$$$
>  <COMPOUND>
CC1(C)OC2OC(C(O)COCCCc3ccccc3)C(O)C2O1 (stereo not drawn)

>  <ATTRIBUTE MEASURED>
Mean O.D. Allogenic

>  <ENDPOINT RESULT>
0.122

$$$$

What is its Mean O.D. Allogenic for T cell proliferation in mouse spleen cell mixed lymphocyte cultures? Entry: CCCCC/C=C\COC[C@H]1O[C@](COC/C=C\CCCCC)(OC)[C@@H](O)[C@@H]1O
0.421

====

Test system: Interleukin 1 (IL-1) production by peritoneal macrophages
ASSAY PROCEDURE: IL-1 Assay: production of interleukin-1 by peritoneal macrophages (thymocyte bioassay)
Assay type: cell-based, mouse (C57B1/6)
ASSAY CONTEXT: 1 ug/ml
Description: Interleukin 1 (IL-1) is a potent immunomodulatory cytokine that has a broad range of pro-inflammatory activities. IL-1 is known to be produced by activated accessory cells such as macrophages. […] The amount of IL-1 produced in the individual wells was determined in a bioassay for IL-1. […] After 18 hours cells were harvested and radioactive incorporation (as a measure of cell proliferation) was quantitated in a liquid scintillation counter. […]
Quick reference for ^3 H-Thymidine uptake by thymocytes among some molecules

>  <MOLECULE>
CCCCCCCOC[C@H]1O[C@@]2(OC)COC(C)(C)O[C@H]2[C@@H]1O

>  <^3 H-Thymidine uptake by thymocytes>
10,777 ± 1,903 cpm

$$$$
>  <MOLECULE>
CN1CCCC1CCNC[C@H]1OC(C)(C)O[C@@H]2[C@H]3OC(C)(C)O[C@H]3O[C@@H]21 (stereo partly drawn)

>  <^3 H-Thymidine uptake by thymocytes>
9,561 ± 113 cpm

$$$$
>  <MOLECULE>
CCCCCC#CCOC[C@H]1O[C@@]2(OC)COC(C)(C)O[C@H]2[C@@H]1OCC#CCCCCC

>  <^3 H-Thymidine uptake by thymocytes>
9,880 ± 1,029 cpm

$$$$
>  <MOLECULE>
CCCCCCCOCCCO[C@@H]1[C@H]2OC(C)(C)O[C@H]2O[C@@H]1[C@H](O)CO

>  <^3 H-Thymidine uptake by thymocytes>
7,307 ± 680 cpm

$$$$
>  <MOLECULE>
CCCCC/C=C/COC[C@H]1O[C@@]2(OC)COC(C)(C)O[C@H]2[C@@H]1OC/C=C/CCCCC

>  <^3 H-Thymidine uptake by thymocytes>
9,710 ± 1,323 cpm

$$$$

Recorded ^3 H-Thymidine uptake by thymocytes of CC1(C)OC2OC(C(O)COCCCc3ccccc3)C(O)C2O1 (stereo not drawn) , please.
4,279 ± 691 cpm

====

Test system: Interleukin 1 (IL-1) production by peritoneal macrophages
ASSAY PROCEDURE: IL-1 Assay: production of interleukin-1 by peritoneal macrophages (thymocyte bioassay)
Format: cell-based, mouse (C57B1/6)
ASSAY CONTEXT: Mus musculus, Peritoneal macrophage; 0.1 ug/ml; read-out: % effect on IL-1 production (thymidine uptake by thymocytes)
Quick reference for inhibition at 0.1 µg/mL among some molecules
Numbers only here, please. The scale is %.

Example entries begin here.
>  <MOLECULE>
CCCCC/C=C/COC[C@H]1O[C@@]2(OC)COC(C)(C)O[C@H]2[C@@H]1OC/C=C/CCCCC

>  <ENDPOINT RESULT>
1

$$$$
>  <MOLECULE>
CC1(C)OC2OC(C(O)COCCCc3ccccc3)C(O)C2O1 (stereo not drawn)

>  <ENDPOINT RESULT>
-4

$$$$
>  <MOLECULE>
CCCCCC#CCOC[C@H]1O[C@@]2(OC)COC(C)(C)O[C@H]2[C@@H]1OCC#CCCCCC

>  <ENDPOINT RESULT>
-19

$$$$
>  <MOLECULE>
CN1CCCC1CCNC[C@H]1OC(C)(C)O[C@@H]2[C@H]3OC(C)(C)O[C@H]3O[C@@H]21 (stereo partly drawn)

>  <ENDPOINT RESULT>
-39

$$$$
>  <MOLECULE>
CCCCCCCOCCCO[C@@H]1[C@H]2OC(C)(C)O[C@H]2O[C@@H]1[C@H](O)CO

>  <ENDPOINT RESULT>
-14

$$$$

What is its inhibition at 0.1 µg/mL for Interleukin 1 (IL-1) production by peritoneal macrophages? Entry: CCCCCCCOC[C@H]1O[C@@]2(OC)COC(C)(C)O[C@H]2[C@@H]1O
8

====

Quick reference for Mean O.D. Syngeneic among some compounds
Tested on: T cell proliferation in mouse spleen cell mixed lymphocyte cultures
ASSAY PROCEDURE: Mixed Lymphocyte Reaction (MLR) assay
Format: cell-based, mouse (Balb/c responder, C57B1/6 stimulator)
ASSAY CONTEXT: 100 um
Numbers only here, please. The scale is O.D..

Example entries begin here.
>  <COMPOUND>
CCCCC/C=C\COC[C@H]1O[C@](COC/C=C\CCCCC)(OC)[C@@H](O)[C@@H]1O

>  <Mean O.D. Syngeneic, O.D.>
0.173

$$$$
>  <COMPOUND>
CCCCCCCOC[C@H]1O[C@](COCC)(OC)[C@@H](OCC)[C@@H]1O

>  <Mean O.D. Syngeneic, O.D.>
0.223

$$$$
>  <COMPOUND>
CCCCCCCOC[C@H]1O[C@@]2(OC)COC(C)(C)O[C@H]2[C@@H]1O

>  <Mean O.D. Syngeneic, O.D.>
0.192

$$$$

Recorded Mean O.D. Syngeneic of CN1CCCC1CCNC[C@H]1OC(C)(C)O[C@@H]2[C@H]3OC(C)(C)O[C@H]3O[C@@H]21 (some centres unmarked) , please.
0.066

What about this compound? CCCCCCCCCCCCCCCOCC(O)C1OC2OC(C)(C)OC2C1O (centres unmarked)
0.019

====

System: T lymphocytes (normal mouse spleen cells) stimulated with ConA
ASSAY PROCEDURE: Mouse Spleen Cell ConA Blastogenesis Assay
Type: cell-based, mouse (C57Bl/6)
ASSAY CONTEXT: ConA 1 ug/ml; compound 1 ug/ml
Quick reference for Blastogenic response of normal spleen cells to Con-A among some molecules

Example entries begin here.
>  <MOLECULE>
CC1(C)OC2OC3C(CSCCN4CCCC4)OC(C)(C)OC3C2O1 (centres unmarked)

>  <ENDPOINT RESULT>
118,909 × 10^3 cpm

$$$$
>  <MOLECULE>
Cc1cn([C@H]2C[C@H](N=[N+]=[N-])[C@@H](CO)O2)c(=O)[nH]c1=O [AZT, reference compound]

>  <ENDPOINT RESULT>
1.7 ± 0.1 × 10^-3 cpm

$$$$
>  <MOLECULE>
CCCCCCCOCCCO[C@@H]1[C@H]2OC(C)(C)O[C@H]2O[C@@H]1[C@H](O)CO

>  <ENDPOINT RESULT>
91,958 ± 15,723 cpm

$$$$
>  <MOLECULE>
CCCCCCCOC[C@H]1O[C@@]2(OC)COC(C)(C)O[C@H]2[C@@H]1O

>  <ENDPOINT RESULT>
55.7 ± 8.4 × 10^-3 cpm

$$$$

Recorded Blastogenic response of normal spleen cells to Con-A of CCCCCCCO[C@@H]1[C@@H](CO)O[C@@]2(CO)OC(C)(C)O[C@@H]12 , please.
119.1 ± 3.3 × 10^-3 cpm

====

System: T lymphocytes (normal mouse spleen cells) stimulated with ConA
ASSAY PROCEDURE: Mouse Spleen Cell ConA Blastogenesis Assay
Assay type: cell-based, mouse (C57Bl/6)
ASSAY CONTEXT: ConA 1 ug/ml; compound 100 ug/ml
ATTRIBUTE MEASURED: Blastogenic response of normal spleen cells to Con-A

Example entries begin here.
>  <COMPOUND>
CCCCCCCO[C@@H]1[C@@H](CO)O[C@@]2(CO)OC(C)(C)O[C@@H]12

>  <EXPERIMENTAL SYSTEM>
T lymphocytes (normal mouse spleen cells) stimulated with ConA

>  <ENDPOINT RESULT>
0.3 ± 0.1 × 10^-3 cpm

$$$$
>  <COMPOUND>
Cc1cn([C@H]2C[C@H](N=[N+]=[N-])[C@@H](CO)O2)c(=O)[nH]c1=O [AZT, reference compound]

>  <EXPERIMENTAL SYSTEM>
T lymphocytes (normal mouse spleen cells) stimulated with ConA

>  <ENDPOINT RESULT>
0.3 ± 0.0 × 10^-3 cpm

$$$$
>  <COMPOUND>
CCCCCCCOC[C@H]1O[C@@]2(OC)COC(C)(C)O[C@H]2[C@@H]1O

>  <EXPERIMENTAL SYSTEM>
T lymphocytes (normal mouse spleen cells) stimulated with ConA

>  <ENDPOINT RESULT>
0.6 ± 0.1 × 10^-3 cpm

$$$$
>  <COMPOUND>
CC1(C)OC2OC3C(CSCCN4CCCC4)OC(C)(C)OC3C2O1 (centres unmarked)

>  <EXPERIMENTAL SYSTEM>
T lymphocytes (normal mouse spleen cells) stimulated with ConA

>  <ENDPOINT RESULT>
64,122 ± 7,847 cpm

$$$$

Now let's try a different one.
Recorded Blastogenic response of normal spleen cells to Con-A of CCCCCCCOCCCO[C@@H]1[C@H]2OC(C)(C)O[C@H]2O[C@@H]1[C@H](O)CO , please.
23,806 ± 1,727 cpm
